Test: Therapeutic index, ratio of TC50 for african green monkey Vero cells to IC50 for Punta toro virus Adames
Assay type: cell-based
Settings: read-out: TI
readout_label: selectivity ratio

| compound | readout_label | quantitative_result |
| --- | --- | --- |
| O[C@H]1[C@H]2c3cc4c(cc3CN3CCC(=C[C@@H]1O)[C@H]23)OCO4 | selectivity ratio | 4.6 |
| CC(=O)O[C@@H]1[C@@H](O)[C@@H](O)[C@@H]2NC(=O)c3cc4c(cc3[C@H]2[C@H]1O)OCO4 [LYCORICIDINE MONOACETATE] | selectivity ratio | 2.1 |
| O=C1N[C@H]2[C@H](O)[C@H](O)[C@@H](O)[C@H](O)[C@@H]2c2cc3c(cc21)OCO3 | selectivity ratio | 4.3 |
